assayed system: Xanthine dehydrogenase/oxidase (Bos taurus, UniProt P80457)
Sequence (P80457 whole entry): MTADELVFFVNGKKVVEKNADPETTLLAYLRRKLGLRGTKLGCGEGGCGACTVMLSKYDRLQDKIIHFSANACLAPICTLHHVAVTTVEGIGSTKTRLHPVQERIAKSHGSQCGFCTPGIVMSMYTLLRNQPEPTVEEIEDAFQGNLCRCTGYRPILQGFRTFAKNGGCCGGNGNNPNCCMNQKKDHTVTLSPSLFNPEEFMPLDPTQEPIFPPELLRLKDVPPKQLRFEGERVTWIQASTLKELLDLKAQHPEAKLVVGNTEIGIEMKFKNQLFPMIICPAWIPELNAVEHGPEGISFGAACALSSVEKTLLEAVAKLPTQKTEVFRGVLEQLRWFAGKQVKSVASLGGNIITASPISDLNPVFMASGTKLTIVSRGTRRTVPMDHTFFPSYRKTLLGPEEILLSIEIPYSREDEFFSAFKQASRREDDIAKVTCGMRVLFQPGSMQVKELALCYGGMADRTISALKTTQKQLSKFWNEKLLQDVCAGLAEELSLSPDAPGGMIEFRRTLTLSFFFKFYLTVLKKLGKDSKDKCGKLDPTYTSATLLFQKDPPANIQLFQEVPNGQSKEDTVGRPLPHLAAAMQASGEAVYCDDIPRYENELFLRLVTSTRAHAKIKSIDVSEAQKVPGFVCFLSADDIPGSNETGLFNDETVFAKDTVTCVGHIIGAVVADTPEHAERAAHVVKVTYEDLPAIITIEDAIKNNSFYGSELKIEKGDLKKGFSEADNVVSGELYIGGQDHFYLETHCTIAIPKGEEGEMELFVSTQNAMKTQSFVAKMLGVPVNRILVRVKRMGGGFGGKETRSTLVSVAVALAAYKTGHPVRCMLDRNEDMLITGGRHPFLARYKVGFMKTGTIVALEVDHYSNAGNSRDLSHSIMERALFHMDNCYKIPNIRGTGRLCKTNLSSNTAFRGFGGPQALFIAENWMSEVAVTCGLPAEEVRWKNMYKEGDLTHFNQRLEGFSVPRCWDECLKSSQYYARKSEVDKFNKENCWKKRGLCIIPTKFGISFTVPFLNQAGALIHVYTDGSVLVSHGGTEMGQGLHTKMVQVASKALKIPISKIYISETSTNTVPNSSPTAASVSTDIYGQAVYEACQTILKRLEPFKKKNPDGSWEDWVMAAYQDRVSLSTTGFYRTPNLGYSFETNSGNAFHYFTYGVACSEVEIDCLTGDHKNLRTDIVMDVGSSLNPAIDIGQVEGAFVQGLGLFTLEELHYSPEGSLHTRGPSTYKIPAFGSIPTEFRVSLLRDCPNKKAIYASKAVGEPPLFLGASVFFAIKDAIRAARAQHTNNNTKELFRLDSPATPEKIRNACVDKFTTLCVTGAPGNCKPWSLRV
run description: Inhibition of bovine xanthine oxidase assessed as reduction of cytochrome c at 25 uM preincubated for 10 mins
condition parameters: cattle
parameter measured: Activity (nM/s)
Numbers only, in nM/s.

Use these answered entries as a reference point.
compound=COc1cc(/C=C/C(=O)CC(=O)/C=C/c2ccc(O)c(OC)c2)ccc1O assayed_system="Xanthine dehydrogenase/oxidase (Bos taurus, UniProt P80457)" parameter_measured=Activity readout_units=nM/s number=150
compound="COc1cc(C2Oc3cc([C@H]4Oc5cc(O)cc(O)c5C(=O)[C@@H]4O)ccc3OC2CO)ccc1O (stereo not given in full)" assayed_system="Xanthine dehydrogenase/oxidase (Bos taurus, UniProt P80457)" parameter_measured=Activity readout_units=nM/s number=120
compound=O=c1c(O)c(-c2ccc(O)c(O)c2)oc2cc(O)cc(O)c12 assayed_system="Xanthine dehydrogenase/oxidase (Bos taurus, UniProt P80457)" parameter_measured=Activity readout_units=nM/s number=110
compound=O=c1cc(-c2ccc(O)c(O)c2)oc2cc(O)cc(O)c12 assayed_system="Xanthine dehydrogenase/oxidase (Bos taurus, UniProt P80457)" parameter_measured=Activity readout_units=nM/s number=110

Let us move to another entry and its Activity.
Prompt: Consider the compound shown here: `Oc1ncnc2[nH]ncc12` What is its recorded Activity?
Completion: 28
